Reported ALP is given for each of the following compounds.
- Organism: Rattus norvegicus
- ASSAY_PROTOCOL: Open TG-GATES - Regimen: Daily Repeat
- Format: toxicity, organism-based, Sprague-Dawley
- Set-up: regimen Daily Repeat, gender Male, age 6 weeks
- PARTICULARS: in vivo, po, 300 mg/kg, […], tissue Plasma, route gavage, dose level Middle, time 14 day
Just the number in IU/L, nothing appended.

Past entries and their recorded results:
• O=C(O)c1ccccc1Nc1ccccc1 = 1463.6
• CC(S)C(=O)NCC(=O)O (centres undefined) = 1441.2
• CCCCNC(=O)NS(=O)(=O)c1ccc(C)cc1 [TOLBUTAMIDE] = 1281

# input Could you tell me which ALP is on file for CC(=O)[C@@]1(O)CC[C@H]2[C@@H]3C=C(Cl)C4=CC(=O)CC[C@]4(C)[C@H]3CC[C@@]21C ?
# output 1447.6
